# Tested on: L1210 leukemia ip in BDF1 mice, survival T/C
# Experiment description: NCI In Vivo Anticancer Drug Screen. Data for tumor model L1210 Leukemia (intraperitoneal) in B6D2F1 (BDF1) mice
# Experimental context: endpoint: mean survival time; dose: 25.0 mg/kg/injection; schedule: Q01DX009 (ip); vehicle: Klucel (hydroxypropylcellulose) (HPC); higher = longer survival
Inconclusive results and toxic doses are left out.

{"Compound": "CCCC(=O)N(C(=O)CCC)c1cc2c3c(c1)CCCN3CCC2", "T/C": "95 % of control"}
{"Compound": "S=C(NCN1CCNCC1)C(=S)NCN1CCNCC1", "T/C": "100 % of control"}
{"Compound": "Cc1ccc(C)c(NC(=O)Oc2ccc(Cl)cc2Cl)c1", "T/C": "87 % of control"}
{"Compound": "Clc1cc(C(Cl)(Cl)Cl)ccc1C(Cl)(Cl)Cl", "T/C": "89 % of control"}
{"Compound": "CC(=O)Nc1ccc(C(=O)CCl)cc1", "T/C": "95 % of control"}
{"Compound": "CCCC(=O)Nc1ccc(N=Nc2ccccc2)cc1", "T/C": "100 % of control"}
{"Compound": "CSc1ccccc1C1CCCCCC1OS(C)(=O)=O (configuration not stated)", "T/C": "109 % of control"}

###

Listed here are molecules together with their documented T/C.
# Tested on: L1210 leukemia ip in BDF1 mice, survival T/C
# Experiment description: NCI In Vivo Anticancer Drug Screen. Data for tumor model L1210 Leukemia (intraperitoneal) in B6D2F1 (BDF1) mice
# Experimental context: endpoint: mean survival time; dose: 50.0 mg/kg/injection; schedule: Q01DX009 (ip); vehicle: saline with Tween-80; higher = longer survival
Inconclusive results and toxic doses are left out.

{"Molecule": "COc1cccc(NC(=O)NCCCl)c1", "Measured on": "L1210 leukemia ip in BDF1 mice, survival T/C", "T/C": "90 % of control"}
{"Molecule": "Cc1ccc2ccccc2[n+]1[O-]", "Measured on": "L1210 leukemia ip in BDF1 mice, survival T/C", "T/C": "96 % of control"}
{"Molecule": "CCCCCCc1nc2nc(Cl)c(Cl)nc2[nH]1", "Measured on": "L1210 leukemia ip in BDF1 mice, survival T/C", "T/C": "96 % of control"}
{"Molecule": "Cc1ccc(S(=O)(=O)Nc2ccc(Nc3ccccc3)cc2)cc1", "Measured on": "L1210 leukemia ip in BDF1 mice, survival T/C", "T/C": "94 % of control"}
{"Molecule": "CC(O)CN1CCCCCC1 (stereo not drawn)", "Measured on": "L1210 leukemia ip in BDF1 mice, survival T/C", "T/C": "93 % of control"}
{"Molecule": "C=C1CC(C)(c2ccc(CCCC(=O)OCC)cc2)OC1=O (stereo not drawn)", "Measured on": "L1210 leukemia ip in BDF1 mice, survival T/C", "T/C": "102 % of control"}
{"Molecule": "O=C(O)Cc1ccc2c3c(ccc([N+](=O)[O-])c13)CC2", "Measured on": "L1210 leukemia ip in BDF1 mice, survival T/C", "T/C": "95 % of control"}
{"Molecule": "COc1cc(OC)c(NC(=S)Nc2ccc([N+](=O)[O-])cc2)cc1Cl", "Measured on": "L1210 leukemia ip in BDF1 mice, survival T/C", "T/C": "92 % of control"}
{"Molecule": "CC(=O)Nc1ncc([N+](=O)[O-])s1", "Measured on": "L1210 leukemia ip in BDF1 mice, survival T/C", "T/C": "97 % of control"}
{"Molecule": "COc1cc2c(cc1O)C(=O)CCC(C(=O)O)=C2", "Measured on": "L1210 leukemia ip in BDF1 mice, survival T/C", "T/C": "93 % of control"}
{"Molecule": "O=C1N(Cl)C(=O)C(c2ccc(Cl)cc2)(c2ccc(Cl)cc2)N1Cl", "Measured on": "L1210 leukemia ip in BDF1 mice, survival T/C", "T/C": "102 % of control"}
{"Molecule": "C=C(Br)CNC(=O)C(=O)OCC", "Measured on": "L1210 leukemia ip in BDF1 mice, survival T/C", "T/C": "97 % of control"}
{"Molecule": "CC(=O)OCC1OC(OC2C(COC(C)=O)OC(Sc3ccccc3)C(OC(C)=O)C2OC(C)=O)C(OC(C)=O)C(OC(C)=O)C1OC(C)=O (stereo not drawn)", "Measured on": "L1210 leukemia ip in BDF1 mice, survival T/C", "T/C": "90 % of control"}
{"Molecule": "c1ccc(C2OC3(CCCCC3)C[N+]23CCCC3)cc1 (stereo not drawn)", "Measured on": "L1210 leukemia ip in BDF1 mice, survival T/C", "T/C": "107 % of control"}
{"Molecule": "CN(CCS)Cc1ccccc1", "Measured on": "L1210 leukemia ip in BDF1 mice, survival T/C", "T/C": "99 % of control"}
{"Molecule": "S=C=NCCc1ccccc1", "Measured on": "L1210 leukemia ip in BDF1 mice, survival T/C", "T/C": "108 % of control"}
{"Molecule": "O=C(NNc1ccccc1)NNc1ccccc1 (tested in a mixture with another compound)", "Measured on": "L1210 leukemia ip in BDF1 mice, survival T/C", "T/C": "95 % of control"}
{"Molecule": "Cc1ccc(S(=O)(=O)Cl)c(Cl)c1", "Measured on": "L1210 leukemia ip in BDF1 mice, survival T/C", "T/C": "92 % of control"}
{"Molecule": "OCCN1CCC2(CC1)SSC1(CCN(CCO)CC1)S2", "Measured on": "L1210 leukemia ip in BDF1 mice, survival T/C", "T/C": "104 % of control"}
{"Molecule": "O=C(NC(Cc1ccccc1)C(=O)CCl)OCc1ccccc1 (stereo not drawn)", "Measured on": "L1210 leukemia ip in BDF1 mice, survival T/C", "T/C": "95 % of control"}
{"Molecule": "CCOC(=O)C=C1CCN(C)CC1", "Measured on": "L1210 leukemia ip in BDF1 mice, survival T/C", "T/C": "104 % of control"}
{"Molecule": "CCCCCCCCCCCCCCCCCCSC(=N)N", "Measured on": "L1210 leukemia ip in BDF1 mice, survival T/C", "T/C": "95 % of control"}
{"Molecule": "CC(=O)Nc1cccc([N+](=O)[O-])c1", "Measured on": "L1210 leukemia ip in BDF1 mice, survival T/C", "T/C": "100 % of control"}
